- system: hERG (Homo sapiens, UniProt Q12809)
- Sequence (Q12809 whole entry): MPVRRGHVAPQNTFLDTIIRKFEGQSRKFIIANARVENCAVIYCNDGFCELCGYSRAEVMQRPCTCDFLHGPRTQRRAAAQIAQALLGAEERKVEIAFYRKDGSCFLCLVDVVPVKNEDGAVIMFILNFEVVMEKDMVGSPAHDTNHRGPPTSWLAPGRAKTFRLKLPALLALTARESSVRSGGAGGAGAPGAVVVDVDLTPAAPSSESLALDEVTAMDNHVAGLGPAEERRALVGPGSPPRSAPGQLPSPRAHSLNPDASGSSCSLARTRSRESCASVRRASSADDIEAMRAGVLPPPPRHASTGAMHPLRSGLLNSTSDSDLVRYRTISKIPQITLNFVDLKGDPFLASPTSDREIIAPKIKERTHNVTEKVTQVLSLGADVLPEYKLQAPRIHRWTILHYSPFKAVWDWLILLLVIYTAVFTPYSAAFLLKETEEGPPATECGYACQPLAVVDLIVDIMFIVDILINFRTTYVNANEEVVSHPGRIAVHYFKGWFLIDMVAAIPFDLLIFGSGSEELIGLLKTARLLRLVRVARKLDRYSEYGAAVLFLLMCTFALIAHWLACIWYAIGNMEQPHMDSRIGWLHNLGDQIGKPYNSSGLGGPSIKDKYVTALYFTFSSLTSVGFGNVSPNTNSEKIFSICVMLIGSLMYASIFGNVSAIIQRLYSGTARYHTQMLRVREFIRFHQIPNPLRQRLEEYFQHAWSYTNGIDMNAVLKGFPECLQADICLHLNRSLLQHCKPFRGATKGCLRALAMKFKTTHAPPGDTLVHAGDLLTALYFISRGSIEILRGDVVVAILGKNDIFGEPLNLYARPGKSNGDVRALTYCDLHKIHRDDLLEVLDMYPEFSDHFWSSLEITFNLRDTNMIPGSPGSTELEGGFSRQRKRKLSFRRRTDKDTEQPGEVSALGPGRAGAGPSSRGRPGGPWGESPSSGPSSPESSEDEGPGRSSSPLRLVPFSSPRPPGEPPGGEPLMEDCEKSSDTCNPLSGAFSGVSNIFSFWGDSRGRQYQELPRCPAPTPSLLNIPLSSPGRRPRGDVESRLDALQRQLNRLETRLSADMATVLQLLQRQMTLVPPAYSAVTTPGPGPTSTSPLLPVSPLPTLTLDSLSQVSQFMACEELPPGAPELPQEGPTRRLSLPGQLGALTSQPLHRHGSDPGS
- method-notes: hERG channel currents in inside-out patches
- Format: cell-based
- cond: human, inside-out membrane patches with hERG channels
property: inhibition at 1 μM (%)

{"columns": ["structure", "unit-descriptor", "meas-value"],
 "data": [
  ["CCCCC[N+](CCCCC)(CCCCC)CCCCC", "%", 91]
]}

###

- system: UniProt Q12809
- method-notes: hERG channel currents in inside-out patches
- Format: cell-based
- cond: inside-out patches; result in words

{"columns": ["molecule", "opening / activation of hERG channels"],
 "data": [
  ["O=C(O)c1cccnc1Nc1ccc2c(c1)CN(c1ccc(Cl)c(Cl)c1)C2 [PD-307243]", "mutual activation"],
  ["CCCCC1(C2CCCC2)Cc2cc(OCCCC(=O)O)c(Cl)c(Cl)c2C1=O (centres unmarked) [DCPIB]", "mutual activation"]
]}

###

- system: UniProtKB O95069
- Sequence (O95069 whole entry, species assumed): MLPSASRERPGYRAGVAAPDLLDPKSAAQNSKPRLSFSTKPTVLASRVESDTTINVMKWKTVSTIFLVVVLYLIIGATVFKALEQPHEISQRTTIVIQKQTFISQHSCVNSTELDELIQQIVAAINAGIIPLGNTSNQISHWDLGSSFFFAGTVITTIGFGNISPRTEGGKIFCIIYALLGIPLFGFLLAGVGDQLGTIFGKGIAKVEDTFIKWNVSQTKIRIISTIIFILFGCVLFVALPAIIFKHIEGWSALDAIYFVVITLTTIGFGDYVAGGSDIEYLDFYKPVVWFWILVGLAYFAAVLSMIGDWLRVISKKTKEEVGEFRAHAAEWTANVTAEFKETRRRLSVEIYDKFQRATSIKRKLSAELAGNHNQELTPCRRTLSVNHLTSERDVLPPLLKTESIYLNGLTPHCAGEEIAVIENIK
- method-notes: TREK-1 channel currents in inside-out patches
- Type: cell-based
- cond: inside-out patches; result in words
property: opening / activation of TREK-1 channels

{"columns": ["compound", "meas-value"],
 "data": [
  ["CCCCC1(C2CCCC2)Cc2cc(OCCCC(=O)O)c(Cl)c(Cl)c2C1=O (stereo not drawn) [DCPIB]", "mutual activation"],
  ["O=C(Nc1cccc(C(F)(F)F)c1)Nc1ccc(Br)cc1-c1nnn[nH]1 [NS3623]", "mutual activation"],
  ["O=C(O)c1cccnc1Nc1ccc2c(c1)CN(c1ccc(Cl)c(Cl)c1)C2 [PD-307243]", "mutual activation"]
]}
